Tested on: MS2 coat protein
procedure_details: apparent KD of MS2 coat protein; higher = weaker reporter binding
run_conditions: Eterna round: R107; input ligand: arginine 13.2 mM
# binarize apparent KD of MS2 coat protein: threshold 60 nM inclusive, high side criterion met, low side criterion not met

Prompt: Determine whether this sequence has apparent KD of MS2 coat protein no lower than 60 nM: AACAGGGCUCGCACGAAGCCCUAAGGUGAUACCAGCACAUGUAAGUGCCCUUGGCAGCACGGUACAUGAGGAUCACCCAUGUAGA [Isleenen]
Completion: criterion not met

Prompt: Does AGGUGCGGCACGGCCGCCACUGCGGUGGUGUGACAUGAGGAUCACCCAUGUUGUCAUGCGGCCCUUAGGACCGGGUGGCGUGCCU [#1 Exclusion - Tryptophan B Attempt #16 (HarryS)] have a reported apparent KD of MS2 coat protein of at least 60 nM?
Completion: criterion not met

Prompt: Test whether the sequence UCGUUUUAGUCGGCCGCCACUGGUCUCAUGUUCAACAUGAGGAUCACCCAUGUAUCUUAUUUUAACAGGACCGGGACGUAAUAGA [#16 Exclusion Tryptophan B] records apparent KD of MS2 coat protein of 60 nM or higher.
Completion: criterion met

Prompt: Check the entry CGUGAUCCCUGUGAUACCAGAAGUACAUGAGGAUCACCCAUGUCAAACACAAAACCAAGCUUCCCUUGGCAGCAUAGUCGUUAAG [Esmaenbiza] : does apparent KD of MS2 coat protein equal or exceed 60 nM?
Completion: criterion met

Prompt: Could you verify whether the entry GGACUAACCAGAAGGAGCGACACGCAGAAACUGCUAUUUCCUCCGCACGAGGAUCACCCGUGUCAGGUAGGUCGCUGGUUAGUCG [ArgBX 28] shows apparent KD of MS2 coat protein of no less than 60 nM?
Completion: criterion not met

Prompt: Record CGUAUUGGAAACAGUACGAGUGAUCCGGUCCGAGGACCGGUACGGCCGCCACUCGAAAAUAAAUAACAUGAGGAUCACCCAUGUA [Ex Tryptophan A 8] ; criterion: apparent KD of MS2 coat protein no lower than 60 nM. Met?
Completion: criterion not met

Prompt: Threshold query (apparent KD of MS2 coat protein >= 60 nM) on AGCCAUGGAAACAUGGCGGCGGCUUGAGCGCGAGGACCGGUACGGCCGCCACUCGGGCAACAUGAGGAUCACCCAUGUUCCUCAU [ETA NP+V+V2 #19]
Completion: criterion met

Prompt: Dear colleague, could you confirm whether ACAUGAGGAUCACCCAUGUCAUGAGGUUCACGAGGACCGGUACGGCCGCCACUCGGGCUUCGGAUCACGGAUGUACAUGAUGAUC [kmullin1] has apparent KD of MS2 coat protein at or above 60 nM?
Completion: criterion not met

Prompt: # check: apparent KD of MS2 coat protein of CACUAUGAGGUCGAUACCAGUACUGAGUUGUACAUGAGGAUCACCCAUGUAAAUGUUCGCUACCCUUGGCAGCGAUAACAUUGCA [theeternabot_sameState_MS2_Theo_B_34] is greater than or equal to 60 nM
Completion: criterion met

Prompt: Dear colleague, could you confirm whether UACUUGCUGACGGCCGCCACUAGAACAUGAGGAUCACCCAUGUAGGUCCUAGAUUCCUCAUGAACUAGGACCGGGUCAGCAAGAU [(Trp1)-(Ms2)-(T)'-(M)'-(Trp2)_Design15] has apparent KD of MS2 coat protein at or above 60 nM?
Completion: criterion not met

Prompt: Item ACAUGAACAUGAGGAUCACCCAUGUAUGAUACCAGAAAAGAAGAGUUCCCUUGGCAGCGUACAACACAUGAGGAUCACCCAUGUG [kvcmullin] with apparent KD of MS2 coat protein of 60 nM or above?
Completion: criterion not met
